Molecular target: T1, MHC class I molecule A*0301 (biotin (bound to streptavidin-coated plate))
T1 construct: also called A3; HLA-A3
Experiment: iTopia iScore
QUANTITY_NAME: iScore
Lab note: jot the number down without any unit.

Some solved entries appear below for comparison.
BINDER: AARTVKCVN [5T4 9-mer peptide 36 AARTVKCVN]
iScore: 0

BINDER: RRPPLAELA [5T4 9-mer peptide 57 RRPPLAELA]
iScore: 0

BINDER: GGCSRGPAA [5T4 9-mer peptide 2 GGCSRGPAA]
iScore: 0

BINDER: SASSFSSSA [5T4 9-mer peptide 19 SASSFSSSA]
iScore: 0

BINDER: RALQGLRRL [5T4 9-mer peptide 104 RALQGLRRL]
iScore: 0.027

BINDER: FSSSAPFLA [5T4 9-mer peptide 21 FSSSAPFLA]
iScore: 0

BINDER: LASNHFLYL [5T4 9-mer peptide 109 LASNHFLYL]
iScore: 0.224

Here's the next entry for you.
In plain terms, SLRQLDLSH [5T4 9-mer peptide 72 SLRQLDLSH] has a documented iScore of 0
